# TARGET_OF_ASSAY: RNA demethylase ALKBH5 (Homo sapiens, UniProt Q6P6C2)
# Sequence (Q6P6C2 whole entry, the tested form may be a part): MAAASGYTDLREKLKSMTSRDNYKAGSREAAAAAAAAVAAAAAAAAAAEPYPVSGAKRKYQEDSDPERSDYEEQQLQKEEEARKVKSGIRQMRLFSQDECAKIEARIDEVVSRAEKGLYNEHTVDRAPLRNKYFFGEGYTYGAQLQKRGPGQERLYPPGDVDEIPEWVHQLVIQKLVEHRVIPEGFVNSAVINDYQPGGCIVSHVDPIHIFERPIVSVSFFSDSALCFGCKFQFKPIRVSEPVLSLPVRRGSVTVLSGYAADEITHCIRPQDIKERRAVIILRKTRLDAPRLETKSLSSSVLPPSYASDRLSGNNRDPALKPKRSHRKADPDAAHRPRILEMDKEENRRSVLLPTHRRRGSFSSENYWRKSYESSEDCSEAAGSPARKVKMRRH
# EXPERIMENT_SUMMARY: Inhibition of recombinant human ALKBH5 catalytic AlkB domain (74 to 294 residues) transfected in Escherichia coli BL21 (DE3) using 8-mer m6A-ssDNA as substrate incubated for 30 mins followed by substrate addition and measured after 3 hrs by HPLC analysis
METRIC: IC50

compound="O=C(O)CCC(=O)O [SUCCINIC ACID]" metric=IC50 meas_value="30 µM"

###

# TARGET_OF_ASSAY: Alpha-ketoglutarate-dependent dioxygenase FTO (Homo sapiens)
# Sequence (Q9C0B1 whole entry): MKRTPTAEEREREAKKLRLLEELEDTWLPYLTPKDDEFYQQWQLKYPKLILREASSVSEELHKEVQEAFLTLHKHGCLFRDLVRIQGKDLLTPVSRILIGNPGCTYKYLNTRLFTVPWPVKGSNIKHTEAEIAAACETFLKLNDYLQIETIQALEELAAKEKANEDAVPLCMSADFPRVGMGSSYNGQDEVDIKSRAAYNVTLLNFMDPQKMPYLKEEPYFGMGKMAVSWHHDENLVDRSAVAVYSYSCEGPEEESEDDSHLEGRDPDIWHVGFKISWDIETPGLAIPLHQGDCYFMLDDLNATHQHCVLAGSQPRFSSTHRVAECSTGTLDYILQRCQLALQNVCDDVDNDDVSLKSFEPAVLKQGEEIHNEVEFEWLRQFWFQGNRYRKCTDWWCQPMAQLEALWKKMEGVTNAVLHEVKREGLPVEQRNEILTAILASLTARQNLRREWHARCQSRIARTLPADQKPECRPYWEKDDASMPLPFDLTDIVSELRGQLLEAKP
# EXPERIMENT_SUMMARY: Inhibition of FTO (unknown origin) demethylation activity using m6A7-Broccoli RNA as substrate incubated for 3 mins under shaking condition and measured after 2 hrs by fluorescence based analysis
pIC50: −log10 of the molar value.
METRIC: pIC50

compound="CN1CC(=O)N=C1NC(=O)Nc1cccc(Cl)c1 [FENOBAM ANHYDROUS]" meas_value=5.48
compound="COc1cccc2c1C1CN(CCCCn3c(=O)[nH]c4c(sc5ncc(-c6ccccc6)nc54)c3=O)CC1CO2 (centres undefined)" meas_value=6.31
compound=NC(=NCc1ccccc1)NC(=O)c1nc(Cl)c(N)nc1N meas_value=5.55
compound="CN1CC[C@]2(C)c3cc(O)ccc3N(C)C12 (some centres undefined)" meas_value=5.90
compound=Cc1sc2ccccc2c1CC1=NCCN1 meas_value=5.86
compound="N=C(N)NC(=O)c1nc(Cl)c(N)nc1N [AMILORIDE]" meas_value=5.32
compound=CN(C)c1nc(N)c(C(=O)NC(=N)N)nc1Cl meas_value=6.47
compound=Nc1c2c(nc3ccccc13)CCCC2 meas_value=5.77
compound=Cc1ccc(O)c(/N=N/c2ccccc2)c1 meas_value=5.94
